molecular target: human IL-1β (human, UniProt P01584 117-269); assay: cell-based or functional assay
Threshold check on ND50: strictly below 4 nM is Condition met; on or above 4 nM is Condition not met.

Is the reported ND50 for ABT2-61 (other, VK dAb) VL: DIQMTQSPSSLSASVGDRVTITCRASQSIRVFLSWYQQKPGKAPKLLIYNASHLQSGVPSRFSGSGSGTDFTLTISSLQPEDFATYYCQQRALYPTTFGQGTKVEIKR strictly below 4 nM?
Condition not met

Is the reported ND50 for ABT2-65 (other) VH: EVQLLESGGGLVQPGGSLRLSCAASGFTFEDYQMGWVRQAPGKGLEWVSSISAMGNRTYYADSVKGRFTISRDDSKNTLYLQMNSLRAEDTAVYYCAKNLVRTQSKMWMFDYWGQGTLVTVSS strictly below 4 nM?
Condition not met

Is the reported ND50 for ABT2-64 (other) VH: EVQLLESGGGLVQPGGSLRLSCAASGFTFDDYGMGWVRQAPGKGLEWVSLIYPFGGGTYYADSVKGRFTISRDNSKNTLYLQMNSLRAEDTAVYYCAKVTQTGKFDYWGQGTLVTVSS strictly below 4 nM?
Condition not met

Continuing:
Is the reported ND50 for ABT2-65-140 (other, VH dAb) VH: EVQLLESGGGLVQPGGSLRLSCAASGFTFEDYQMGWVRQAPGKGLEWVSSISAMGNRTYYADSVKGRFTISRDDSKNTLYLQMNSLRAEDTAVYYCAENLVKISRRHWMFDYWGQGTLVTVSS strictly below 4 nM?
Condition met

Is the reported ND50 for ABT2-69 (other) VH: EVQLLESGGGLVQPGGSLRLSCAASGFTFTGYDMAWVRQAPGKGLEWVSVIYAYGESTYYADSVKGRFTISRDNSKNTLYLQMNSLRAEDTAVYYCAKVYSNQFDYWGQGTLVTVSS strictly below 4 nM?
Condition not met

Is the reported ND50 for ABT2-65-81 (other, VH dAb) VH: EVQLLESGGGLVQPGGSLRLSCVASGFTFEEYQMGWVRQAPGKGLEWVSSISAMGNRTYYADSVKGRFTISRDDSKNTLYLQMNSLRAEDTAVYYCAQNLVRLGRSRWMFDYWGQGTLVTVSS strictly below 4 nM?
Condition met

Is the reported ND50 for ABT2-108-537X (other) VH: EVQLLESGGGLVQPGGSLRLSCAASGFTFADEGMMWVRQAPGKGLEWVSRIGQDGKNTYYRMDVKGRFTISRDNSKNTLYLQMNSLRAEDTAVYYCAKYTGRILGHHLFDYWGQGTLVTVSS strictly below 4 nM?
Condition not met

Is the reported ND50 for ABT2-65-79 (other, VH dAb) VH: EVQLLESGGGLVQPGGSLRLSCVASGFTFEDYQMGWVRQAPGKGLEWVSSISAMGNRTYYADSVKGRFTISRDDSKNTLYLQMNSLRAGDTAVYYCAQNLVRLGRSRWMFDYWGQGTMVTVSS strictly below 4 nM?
Condition met
